List of GI50 values.
# Test system: TK-10
# assay_overview: NCI tumour cell line growth inhibition, 48 h
Active and inactive are the calls of the source. No stated cut-off is given here; in the data, active = GI50 up to about 1.1 µM and inactive = higher.

molecule	GI50
CCOC(=O)NN(C(=O)OCC)C(=C(C1=CCCCC1)N1CCOCC1)N(NC(=O)OCC)C(=O)OCC	> 100 µM (inactive)

Req: # query: GI50 of entry N#C/C(=C\c1c(Cl)cccc1Cl)c1ccccc1
Resp: 15.8 µM (inactive)

* * *

# System: SK-OV-3
# assay_overview: NCI tumour cell line growth inhibition, 48 h
Calls of active or inactive are those of the source. Cut-off read from the data, not from the text of the source: active = GI50 up to about 1.1 µM and inactive = higher.
List of GI50 values.

Previously resolved entries follow.
molecule	measurement_kind	test_result
CC(=O)O[C@]1(C)CCC2C(C)C(=O)OC2C2C(C)[C@@H](O)CC21 (stereo not given in full)	GI50	49.9 µM (inactive)
NC(=S)N/N=C\CC(O)(C(F)(F)F)C(F)(F)F	GI50	> 10 µM (inactive)

Req: # query: GI50 of entry C[N+]1(CCC(=O)c2ccccc2)CCC2CCC(C2)C1 (stereo not given)
Resp: > 100 µM (inactive)

Req: Please give the result for CCOC(=O)c1[nH]cc(C)c1-c1ccc2c(-c3ccccc3)nc3ccccc3n12 too.
Resp: 4.4 µM (inactive)

Req: Please give the result for O=C1N[C@@H]2CCC[C@@H]2[C@@H]1c1ccc(Cl)cc1 too.
Resp: > 100 µM (inactive)

* * *

# Tested on: SF-268
# assay_overview: NCI tumour cell line growth inhibition, 48 h
Activity calls are given as the source filed them. Rule as the data show it: active = GI50 up to about 1.1 µM and inactive = higher.
measurement_kind: GI50

Previously resolved entries follow.
N#C/C(=C\c1c(Cl)cccc1Cl)c1ccccc1 18.5 µM (inactive)
O=C1C[C@H](c2ccccc2)O[C@@H](c2ccccc2)C1 > 100 µM (inactive)
C/C(CC(=O)Nc1ccc(Cl)cc1)=N\NC(N)=S 54 µM (inactive)

Below: the item to evaluate.
Req: # query: GI50 of entry CN(C)c1ccc(/C=C/C(=O)N[C@@H]2C(=O)N3[C@@H]2SC(C)(C)[C@@H]3C(=O)O)cc1
Resp: > 100 µM (inactive)

* * *

List of GI50 values.
# Test system: LOX IMVI
# assay_overview: NCI tumour cell line growth inhibition, 48 h
Calls of active or inactive are those of the source. Cut-off read from the data, not from the text of the source: active = GI50 up to about 1.1 µM and inactive = higher.

Req: GI50 of CCOC(C[C@H](O[Si](C)(C)C(C)(C)C)[C@H]1COC(=S)S1)OCC on LOX IMVI?
Resp: 52.6 µM (inactive)

* * *

# System: CCRF-CEM
# assay_overview: NCI tumour cell line growth inhibition, 48 h
Active and inactive are the calls of the source. No stated cut-off is given here; in the data, active = GI50 up to about 1.1 µM and inactive = higher.
Allowed answers: True = active, False = inactive

compound	system	category_label
COC(=O)Nc1nc2cc(NS(=O)(=O)c3ccc(Cl)cc3)ccc2[nH]1	CCRF-CEM	False

Req: Test call, this compound: CC[C@H](NC(=O)OC(C)(C)C)C(=O)NCP(=O)(OCc1ccc([N+](=O)[O-])cc1)OCc1ccc([N+](=O)[O-])cc1
Resp: False

Req: Please give the result for CCCCNC1=C2C(=O)NN=C2CO1 too.
Resp: False

Req: Please give the result for O=C1COc2cc3c(cc2N1)SCC(=O)N3 too.
Resp: False

Req: Please give the result for c1ccc(C[n+]2cccc(-c3cc4ccccc4[nH]3)c2)cc1 too.
Resp: False

Req: Please give the result for NC(=S)N1N=C2c3ccccc3CC[C@H]2[C@@H]1c1cccs1 too.
Resp: False

Req: Please give the result for COc1cc(OCc2ccc3oc(=O)c(-c4ccccc4)nc3c2)cc(OC)c1OC too.
Resp: False

Req: Please give the result for COc1ccc2oc(=O)c(-c3nc4ccccc4s3)cc2c1 too.
Resp: False

Req: Please give the result for CCOC(=O)NC(OC)(C(F)(F)F)C(F)(F)F too.
Resp: False
